Target: Torsin-1A (Homo sapiens)
Assay: torsin A binders from cell lysate, primary screen, small-molecule microarray, wild-type, 635/667 nm (AID 1149)
Conditions: COS7 hTOR1A-WT lysate, 635 nm fluorescence, higher = more signal
Catalogue of composite z-score readings, one per entry.
readout: composite z-score

| molecule | study.target | reported.value |
| --- | --- | --- |
| C#CCN(CC=C(C)C)[C@H](CO)c1ccccc1 | Torsin-1A (Homo sapiens) | 0.247 |
| O=C1O[C@H](c2ccccc2)[C@H](c2ccccc2)N2[C@H]1[C@@H](C(=O)NC[C@H](O)c1ccccc1)[C@]1(C(=O)Nc3ccccc31)[C@H]2c1ccc(OCCO)cc1 | Torsin-1A (Homo sapiens) | 1.55 |
| COc1cc2c(cc1OC)CN(C(=O)[C@H]1[C@@H]3C(=O)O[C@@H](c4ccccc4)[C@@H](c4ccccc4)N3[C@@H](c3ccc(O)cc3)[C@]13C(=O)Nc1ccc(C#CCNC(N)=O)cc13)CC2 | Torsin-1A (Homo sapiens) | 0.437 |
| C=CCC(OC(C)=O)[C@@H]1[C@@H](N(Cc2ccc(-c3cccc(C(F)(F)F)c3)o2)C(=O)c2ccc(-c3ccccc3)cc2)c2cc(OCCCO)ccc2N1C(=O)c1ccc(-c2ccccc2)cc1 (stereo partly drawn) | Torsin-1A (Homo sapiens) | -0.0662 |
| CC(C)(C)OC(=O)CC[C@]1(C(=O)NCC(O)CO)COC(c2ccc(OCCCO)cc2)=N1 (stereo partly drawn) | Torsin-1A (Homo sapiens) | 0.746 |
| [N-]=[N+]=NCc1ccccc1[C@@H]1OC(c2ccc(OCCCO)cc2)=N[C@]1(CCS(=O)(=O)c1ccccc1)C(=O)NCc1ccccc1 | Torsin-1A (Homo sapiens) | 0.248 |
| COCCOC(=O)N1C(=O)[C@@]2(c3cc(C#Cc4ccc(OC)cc4)ccc31)[C@H](C(=O)N1CCCCCCC1)[C@H]1C(=O)O[C@H](c3ccccc3)[C@H](c3ccccc3)N1[C@@H]2c1ccc(OCCO)cc1 | Torsin-1A (Homo sapiens) | 1.12 |
| C=C/C=C/[C@H]1C(=C)CN([C@@H](Cc2ccccc2)C(=O)OC)[C@@H]1[C@H](O)Cc1ccccc1 | Torsin-1A (Homo sapiens) | -1.74 |
| [N-]=[N+]=NCc1ccccc1C[C@]1(C(=O)N2CCOCC2)N=C(c2ccc(OCCCO)cc2)O[C@H]1c1ccccc1N=[N+]=[N-] | Torsin-1A (Homo sapiens) | 1.49 |
| COC(=O)[C@@]1(Cc2ccc(F)cc2)[C@H]2c3cc(C(=O)N(C)C)n(CC4CC4)c3C[C@H]2CN1C(=O)c1ccccc1 | Torsin-1A (Homo sapiens) | -0.532 |
| O=C1O[C@H](c2ccccc2)[C@H](c2ccccc2)N2[C@H]1[C@@H](C(=O)Nc1nc3ccccc3s1)[C@]1(C(=O)Nc3ccc(C#CCCO)cc31)[C@H]2c1ccc(OCCO)cc1 | Torsin-1A (Homo sapiens) | 1.15 |
| [N-]=[N+]=NCc1ccccc1C[C@]1(C(=O)O)N=C(c2ccc(OCCCO)cc2)O[C@H]1c1ccccc1N=[N+]=[N-] | Torsin-1A (Homo sapiens) | 2.01 |
| COc1ccc(C(=O)Nc2ccc(CN3C(=O)[C@@]4(O[C@@H](CCn5cc([C@H](O)c6ccccc6)nn5)[C@H]([Si](C)(C)c5ccc(OC)cc5)[C@H]4C)c4ccccc43)cc2)cc1 | Torsin-1A (Homo sapiens) | 0.253 |

Value source: PubChem BioAssay
